- TARGET SYSTEM: T1, β2-Microglobulin (Homo sapiens, UniProt P61769)
- T1 construct: human β2-microglobulin; Amine-coupled to a CM5 chip (150 RU); also called antigen β2M; source: expressed and purified as previously described [27]
- T1 sequence (P61769 21-119): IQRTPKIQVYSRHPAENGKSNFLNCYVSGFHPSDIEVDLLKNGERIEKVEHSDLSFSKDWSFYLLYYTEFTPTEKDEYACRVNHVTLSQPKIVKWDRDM
- METHOD: SPR; Biacore T200; β2M immobilised on a CM5 chip to 150 RU; VHH samples after the modification procedure (NHS-Fluo:VHH 0, 1, 5 or 20; 2 h at 4 °C, ultrafiltration) in 2-fold serial dilution, 30 μL/min, HBS-EP+, 25 °C; 1:1 model with drift and RI2
- ASSAY CONDITIONS: both partners purified
I'd be grateful if you could share measured koff for these entries.
Answer format: numeric, s⁻¹ implied, no suffix.

(Q) Please report the recorded koff for NB-2 modified with 1 time of NHS-Fluo (VHH, as the VHH domain of Dm6; flexible (G4S)4 linker between the VHH domain and the His6 tag, written out from '(G4S)4'; A mixture of isomers with different numbers and places of fluorescein; also called NB-2-1; source: E. coli SHuffle T7, purified (HisTrap HP), modified with NHS-Fluo, ultrafiltration) VHH: QVQLVESGGGLVQHGGSLRLSCAASGSAFSTYSMTWHRQAPGKGREWVAGVDRSNSDTNYADSVKGRFTIYRDNAQNTVYLRMNSLKPEDTAVYYCSAERLDGSVRREYWGQGTQVTVSS .
(A) 0.00403

(Q) Please report the recorded koff for NB-1 modified with 20 times of NHS-Fluo (VHH, as the VHH domain of Dm2; flexible (G4S)4 linker between the VHH domain and the His6 tag, written out from '(G4S)4'; also called NB-1-20; labeled NB-1; source: E. coli SHuffle T7, purified (HisTrap HP), modified with NHS-Fluo, ultrafiltration) VHH: QVQLVESGGGLVQAGGSLRLSCAASGSTLDSYYIGWFRQAPGKEREGVSCISSSGNSIRYVDSVKDRFTISRDNGKNTAYLHINSLRPEDTAVYYCAASRRGRKPGLPCSLVRERYAYWGQGTQVTVSS .
(A) 0.00863

(Q) Please report the recorded koff for NB-3 (VHH, VHH domain of NB-3; flexible (G4S)4 linker between the VHH domain and the His6 tag, written out from '(G4S)4'; VHH-(G4S)4-His6; Template of the homology model: PDB 5J56 (GMQE 0.93). 'Origin' = no treatment; '0' = negative control; also called NB-3-Origin; NB-3-0; source: E. coli SHuffle T7, purified (HisTrap HP)) VHH: QVQLVESGGGLVQPGGSLRLSCAASGFSLDYYAIGWFRQAPGKEREGVSCISSSDDSTYYAGSVKGRFKISRDNAKSTVYLQMNSLKPEDSAVYYCAALHSGNYYYTPSYICDAEMDYWGKGTLVTVSS .
(A) 0.00165

(Q) Please report the recorded koff for NB-2 modified with 5 times of NHS-Fluo (VHH, as the VHH domain of Dm6; flexible (G4S)4 linker between the VHH domain and the His6 tag, written out from '(G4S)4'; A mixture of isomers with different numbers and places of fluorescein; also called NB-2-5; source: E. coli SHuffle T7, purified (HisTrap HP), modified with NHS-Fluo, ultrafiltration) VHH: QVQLVESGGGLVQHGGSLRLSCAASGSAFSTYSMTWHRQAPGKGREWVAGVDRSNSDTNYADSVKGRFTIYRDNAQNTVYLRMNSLKPEDTAVYYCSAERLDGSVRREYWGQGTQVTVSS .
(A) 0.00554
